TARGET SYSTEM: KRAS-G12C (C51S/C80L/C118S) (Homo sapiens, UniProt P01116, C118S/C51S/C80L/G12C)
Sequence (P01116 with tags, fused parts or gaps isoform P01116-2 G12C/C51S/C80L/C118S): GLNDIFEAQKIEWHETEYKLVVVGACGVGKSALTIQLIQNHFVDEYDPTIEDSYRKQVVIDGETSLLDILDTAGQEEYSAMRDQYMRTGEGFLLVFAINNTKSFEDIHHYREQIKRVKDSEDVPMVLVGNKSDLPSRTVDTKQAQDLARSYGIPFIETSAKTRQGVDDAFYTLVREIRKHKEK
ASSAY REMARKS: SOS-catalyzed nucleotide exchange assay (Procedure A, TR-FRET), KRAS-G12C
Format: biochemical
DETAILS: nucleotide exchange, Procedure A; read-out: KRAS G12C GNE IC50
Attribute: IC50
PROPERTY MEASURED: IC50 (nM)

COMPOUND STRUCTURE STRING	PROPERTY MEASURED	RESULT NUMBER
Cc1cc2[nH]ncc2c(-c2nccc3c2sc2nc(OC[C@@]45CCCN4C[C@H](F)C5)nc(N4CCOCC4)c23)c1C(F)(F)F	IC50	124
COc1cc2c3c(N4CCOC[C@@](C)(O)C4)nc(OC[C@@]45CCCN4C[C@H](F)C5)nc3n(C)c2c(-c2c(C(F)(F)F)c(C)cc3[nH]ncc23)n1	IC50	209
CN(C)C[C@@]1(COc2nc(N3CCOC[C@@](C)(O)C3)c3c(n2)oc2c(-c4c(C5CC5)c(Cl)cc5[nH]ncc45)nccc23)CC1(F)F	IC50	30.1
Cc1cc2[nH]ncc2c(-c2nccc3c2sc2nc(OC[C@@]45CCCN4C[C@H](F)C5)nc(N4CCOC[C@@](C)(O)C4)c23)c1-c1cccs1	IC50	120
C[C@@]1(O)COCCN(c2nc(OC[C@]3(CN4C[C@H]5CCCO[C@H]5C4)CC3(F)F)nc3sc4c(-c5c(C6(F)CC6)c(Cl)cc6[nH]ncc56)nccc4c23)C1	IC50	86.7
Cc1cc2[nH]ncc2c(-c2nncc3c2sc2nc(OC[C@@]45CCCN4C[C@H](F)C5)nc(N4CCOC[C@@](C)(O)C4)c23)c1C(F)(F)F	IC50	184
